These entries and their values trace back to patent US12630530B2.

# Target Desc: FGFR3 V555M (Homo sapiens, UniProt P22607, V555M)
# Construct: purchased Signalchem F06-12GG
# Sequence (P22607 23-806 V555M): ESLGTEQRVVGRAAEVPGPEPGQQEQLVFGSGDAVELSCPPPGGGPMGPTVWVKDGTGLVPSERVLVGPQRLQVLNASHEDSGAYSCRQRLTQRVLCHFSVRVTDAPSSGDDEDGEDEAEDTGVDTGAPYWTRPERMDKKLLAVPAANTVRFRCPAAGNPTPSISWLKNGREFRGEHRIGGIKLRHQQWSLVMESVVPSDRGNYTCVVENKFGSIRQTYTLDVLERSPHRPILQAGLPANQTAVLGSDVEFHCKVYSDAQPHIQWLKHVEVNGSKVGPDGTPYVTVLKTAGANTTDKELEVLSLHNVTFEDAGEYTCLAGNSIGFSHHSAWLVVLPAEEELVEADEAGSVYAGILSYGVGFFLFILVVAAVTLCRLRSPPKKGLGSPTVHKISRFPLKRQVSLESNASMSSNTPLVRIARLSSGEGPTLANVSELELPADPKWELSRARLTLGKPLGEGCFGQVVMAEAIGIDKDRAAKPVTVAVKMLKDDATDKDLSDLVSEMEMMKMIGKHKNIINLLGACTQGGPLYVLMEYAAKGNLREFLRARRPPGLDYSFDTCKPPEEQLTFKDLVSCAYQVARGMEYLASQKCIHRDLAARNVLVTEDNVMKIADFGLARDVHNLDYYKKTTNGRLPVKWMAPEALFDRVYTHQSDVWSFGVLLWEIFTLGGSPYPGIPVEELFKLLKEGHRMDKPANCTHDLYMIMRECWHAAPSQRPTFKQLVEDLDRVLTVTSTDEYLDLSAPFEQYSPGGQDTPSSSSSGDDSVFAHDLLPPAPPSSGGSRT
# Measurement Protocol: Assay III: inhibitory activity against FGFR mutants (method of Assay I, different operator)
# Type: biochemical
# Measurement Conditions: Table 3; same method as Assay I, different experimental operator
Measurement Name: IC50 (nM)

Molecule	Measurement Name	Endpoint Result
CC(Oc1ccc2[nH]nc(C(=O)Nc3cnn(CCN4CCCC4)c3)c2c1)c1c(Cl)cncc1Cl (stereo not drawn)	IC50	0.21
CC(Oc1ccc2[nH]nc(C(=O)Nc3cnn(CC(=O)N(C)C)c3)c2c1)c1c(Cl)cncc1Cl (stereo not drawn)	IC50	1.3
CC(Oc1ccc2[nH]nc(C(=O)Nc3cnn(CCCO)c3)c2c1)c1c(Cl)cncc1Cl (stereo not drawn)	IC50	0.25

[a] C[C@@H](Oc1ccc2[nH]nc(C(=O)Nc3cnn(C4CCOCC4)c3)c2c1)c1c(Cl)cncc1Cl
[b] CCn1cc(NC(=O)c2n[nH]c3ccc(O[C@H](C)c4c(Cl)cncc4Cl)cc23)cn1
Data request: Hey, between a and b which has a smaller measured IC50? Answer by stating the label of the chosen item.
Data returned: b
(b: 0.75 nM, a: 2.1 nM)

[I] C[C@@H](Oc1ccc2[nH]nc(C(=O)Nc3cnn(CC4CCCCN4C)c3)c2c1)c1c(Cl)cncc1Cl (stereo partly drawn)
[II] C[C@@H](Oc1ccc2[nH]nc(C(=O)Nc3cnn(CC4CCN(C)C4)c3)c2c1)c1c(Cl)cncc1Cl (stereo partly drawn)
Data request: Kindly compare I with II and tell me which has the lower IC50 figure. Indicate your choice by writing its label.
Data returned: I

[P] C[C@@H](Oc1ccc2[nH]nc(C(=O)Nc3cnn(Cc4ccncc4)c3)c2c1)c1c(Cl)cncc1Cl
[Q] C[C@@H](Oc1ccc2[nH]nc(C(=O)Nc3cnn(CCN(C)C)c3)c2c1)c1c(Cl)cncc1Cl
[R] CCN1CC(Cn2cc(NC(=O)c3n[nH]c4ccc(O[C@H](C)c5c(Cl)cncc5Cl)cc34)cn2)C1
[S] C[C@H](O)Cn1cc(NC(=O)c2n[nH]c3ccc(O[C@H](C)c4c(Cl)cncc4Cl)cc23)cn1
Data request: List from greatest to least IC50. Hello, could you send the labels back in the order asked? Thank you.
Data returned: P, S, Q, R
(P: 0.64 nM, S: 0.26 nM, Q: 0.11 nM, R: 0.05 nM)

[P] C[C@@H](Oc1ccc2[nH]nc(C(=O)Nc3cnn(C4CCN(C)C4)c3)c2c1)c1c(Cl)cncc1Cl (stereo partly drawn)
[Q] C[C@@H](Oc1ccc2[nH]nc(C(=O)Nc3cnn(CC4CCCN4C)c3)c2c1)c1c(Cl)cncc1Cl (stereo partly drawn)
[R] C[C@@H](Oc1ccc2[nH]nc(C(=O)Nc3cnn(C4CCC(O)CC4)c3)c2c1)c1c(Cl)cncc1Cl (stereo partly drawn)
Data request: Sort the 3 molecules by IC50; largest first, smallest last. Record the ranking as a list of labels in the requested order.
Data returned: R, Q, P

---

# Target Desc: FGFR3 V555M (Homo sapiens, UniProt P22607, V555M)
# Construct: purchased Signalchem F06-12GG
# Measurement Protocol: Assay III: inhibitory activity against FGFR mutants (method of Assay I, different operator)
# Type: biochemical
# Measurement Conditions: Table 3; same method as Assay I, different experimental operator
Measurement Name: IC50 (nM)

[1] C[C@@H](Oc1ccc2[nH]nc(C(=O)Nc3cnn(Cc4cccnc4)c3)c2c1)c1c(Cl)cncc1Cl [Compound 49]
[2] CC(Oc1ccc2[nH]nc(C(=O)Nc3cnn(C(C)C)c3)c2c1)c1c(Cl)cncc1Cl (stereo not shown) [Compound 26]
Data request: // select label with min value of measured IC50 from [ 1 , 2 ] Indicate your choice by writing its label.
Data returned: 1

[P] C[C@@H](Oc1ccc2[nH]nc(C(=O)Nc3cnn(CC(C)(C)O)c3)c2c1)c1c(Cl)cncc1Cl [Compound 38]
[Q] CCN1CC(n2cc(NC(=O)c3n[nH]c4ccc(O[C@H](C)c5c(Cl)cncc5Cl)cc34)cn2)C1 [Compound 31]
[R] CCC(Oc1ccc2[nH]nc(C(=O)Nc3cnn(C)c3)c2c1)c1c(Cl)cncc1Cl (stereo not shown) [Compound 46]
Data request: Hello, I need these entries ordered by IC50, highest reading first. Thanks! Would you mind listing the labels in the order asked for?
Data returned: R, P, Q
(R: 2.1 nM, P: 0.59 nM, Q: 0.07 nM)
